TGT: Nuclear receptor subfamily 1 group D member 1 (Homo sapiens)
TEST_NAME: modulators of Rev-erb alpha DNA binding, primary screen, biochemical, FITC-DNA, fluorescence polarization, uHTS (AID 1259318);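 note: 0% = DMSO wells with 35 nM protein and 100% = DMSO wells with 750 nM protein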
DETAILS: Rev-erbα–FITC-DNA binding, 90 min, at 10 µM
The whole screen tested about 370,000 compounds, of which about 3,000 (0.81%) were called active.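 Rule for the calls: active = activity above about 14% (limit read from the data; passing the limit was not always enough); inactive = the rest.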 This excerpt belongs to a sample that is enriched for actives.
Outcomes: yes (1) = active, no (0) = inactive

- MOLECULE: "COc1cc(C(=O)OCc2cc(=O)n3ccsc3n2)ccc1OC(C)C"
  QUALITATIVE_LABEL: "no (0)"
- MOLECULE: "O=C1NC(c2ccccc2)=NC1(Nc1ccccn1)C(F)(F)F (stereo not drawn)"
  QUALITATIVE_LABEL: "no (0)"
- MOLECULE: "Cc1ccc(NS(=O)(=O)c2ccc(-c3ccc(=O)[nH]n3)o2)c(C)c1"
  QUALITATIVE_LABEL: "no (0)"
- MOLECULE: "CCCN1C(=O)C(NC(C)=O)c2cc(OC)ccc21 (stereo not drawn)"
  QUALITATIVE_LABEL: "no (0)"
- MOLECULE: "CSc1ccccc1NC(=O)CN(C)CC(=O)Nc1cccc(Br)c1"
  QUALITATIVE_LABEL: "no (0)"
- MOLECULE: "CC(=O)C1=C(C)N(Cc2ccc(Cl)cc2)C(=S)NC1c1ccc(F)cc1 (stereo not drawn)"
  QUALITATIVE_LABEL: "no (0)"
- MOLECULE: "CCOC(=O)c1c(NC(=O)CCCN2CCOCC2)sc2c1CC(C)(C)OC2"
  QUALITATIVE_LABEL: "no (0)"
- MOLECULE: "CCNC(=O)C1(C)CCCN(C(=O)c2c(C)noc2C)C1 (stereo not drawn)"
  QUALITATIVE_LABEL: "no (0)"
- MOLECULE: "COc1cc(OC)cc(-c2nc(=S)n3ccsc3n2)c1"
  QUALITATIVE_LABEL: "yes (1)"
- MOLECULE: "Cc1noc(C)c1CCC(=O)O"
  QUALITATIVE_LABEL: "no (0)"
- MOLECULE: "O=C(Nc1cc(Cl)cc(Cl)c1)OCCN1CCCC12CCC(c1ccccc1)CC2 (stereo not drawn)"
  QUALITATIVE_LABEL: "no (0)"
- MOLECULE: "CN(C)c1ccc(/C=C2\\NC(=S)N(Cc3ccccc3)C2=O)cc1"
  QUALITATIVE_LABEL: "yes (1)"
- MOLECULE: "COC(=O)[C@]1(C)N[C@H](c2ccc(-c3ccc(Cl)c(Cl)c3)cc2)[C@@H]2C(=O)N(C)C(=O)[C@@H]21"
  QUALITATIVE_LABEL: "no (0)"
- MOLECULE: "C=CCNC(=S)/N=c1/ccccn1Cc1ccccc1"
  QUALITATIVE_LABEL: "no (0)"
- MOLECULE: "COCCCNC(=O)CN1CCN(Cc2ccccc2Cl)C1=O"
  QUALITATIVE_LABEL: "no (0)"
- MOLECULE: "C#CCNc1nc(C(C)C)nc2c1nnn2Cc1ccccc1F"
  QUALITATIVE_LABEL: "no (0)"
- MOLECULE: "O=C(CN1CCCc2ccccc21)NCc1ccc(F)cc1"
  QUALITATIVE_LABEL: "no (0)"
- MOLECULE: "CC(=O)N1CCCN(C2=Nc3ccccc3Sc3ccccc32)CC1"
  QUALITATIVE_LABEL: "no (0)"
